Molecular target: HLA-A*11:01 (Homo sapiens, UniProt P04439, A114D/D185E/E176A/F33Y/L180Q/S129P/T187R)
Assay: REVEAL Epitope Discovery System in vitro MHC-peptide binding assay
Settings: binding normalized to positive control peptide set at 100%, >50 considered good or high affinity binding
No end group written: not given here.
measurement-kind: A*11:01 In Vitro Score
Please reply with the number alone, leaving off any unit.

record-sequence	reported-value
IFWVQRGAK	61.30

Exercise: Notebook entry, HLA-A*11:01 (Homo sapiens, UniProt P04439, A114D/D185E/E176A/F33Y/L180Q/S129P/T187R) assay: A*11:01 In Vitro Score of FIIFWVHRG = ?
Key: 0.90

Exercise: Query FWVQRGSKK next
Key: 6.80

Exercise: Here is the next sequence: FIIFWVLRG
Key: 2.40

Exercise: Same question, VAFIIFWVQ this time
Key: 3.90

Exercise: Okay, and FWVKRGHKK ?
Key: 27.60

Exercise: Repeat with WVKRGRKKA
Key: 3.10

Exercise: Try IFWVKRGLK next.
Key: 61.10

The measured values listed here are drawn from patent US20200297760A1.
